Test: Half-life in cynomolgus monkey at 1 mg/kg, po administered as cassette dose by LC-MS/MS analysis
Assay type: ADME, organism-based, Macaca fascicularis
Details: in vivo
QUANTITY_KIND: half-life

See these solved cases before continuing.
Look up half-life: CCCCN(c1nc2c(C(=O)O)cccc2o1)[C@H](C)c1ccc(-c2ccccc2-c2nnn[nH]2)cc1
3.7 h

Given the entry CCCCN(c1nc2c(C(=O)O)cccc2o1)[C@H](C)c1ccc(-c2cc(Cl)ccc2-c2nc(=O)o[nH]2)cc1 , report its measured half-life.
2 h

So what does the record say about half-life for CCCCN(c1nc2c(NS(C)(=O)=O)cccc2o1)[C@H](C)c1ccc(-c2ccccc2-c2nnn[nH]2)cc1 ?
4.7 h

Given the molecule CCCCN(c1nc2c(-c3nccn3C)cccc2o1)[C@H](C)c1ccc(-c2ccccc2-c2nnn[nH]2)cc1 , what is its reported half-life?
3.9 h

# query: half-life of entry CCCCN(c1nc2c(CO)cccc2o1)[C@H](C)c1ccc(-c2ccccc2-c2nnn[nH]2)cc1
1.6 h

---
Could you share which half-life value was measured for CCCCN(c1nc2ccccc2o1)[C@H](C)c1ccc(-c2ccccc2-c2nnn[nH]2)cc1 ?
3.2 h

Return reported half-life; argument: CCCCN(c1nc2c(-c3ccccn3)cccc2o1)[C@H](C)c1ccc(-c2ccccc2-c2nnn[nH]2)cc1
5.9 h

Please give the measured half-life for this molecule: Cc1ccc(-c2nc(=O)o[nH]2)c(-c2ccc([C@@H](C)N(CC3CC3)c3nc4c(C(=O)O)cccc4o3)cc2)c1
2.8 h

###

Experiment: Fraction unbound in cynomolgus monkey plasma at 1 mg/kg, po administered as cassette dose incubated for 16 to 24 hrs by equilibrium dialysis based LC-MS analysis
Type: ADME, organism-based, Macaca fascicularis
Settings: in vivo, time 16-24 hrs
This listing pairs compounds with measured Fu.

Check out these entries, answers already filled in.
Consider the compound shown here: CCCCN(c1nc2c(C(=O)N(C)C)cccc2o1)[C@H](C)c1ccc(-c2ccccc2-c2nnn[nH]2)cc1 What is its recorded Fu?
0.411 fraction (unitless)

Which Fu is listed for CCCCN(c1nc2c(CO)cccc2o1)[C@H](C)c1ccc(-c2ccccc2-c2nnn[nH]2)cc1 ?
0.112 fraction (unitless)

Value lookup for Fu; key = CCCCN(c1nc2c(-c3nccn3C)cccc2o1)[C@H](C)c1ccc(-c2ccccc2-c2nnn[nH]2)cc1
0.299 fraction (unitless)

Entry C[C@H](c1ccc(-c2ccccc2-c2nc(=O)o[nH]2)cc1)N(CC1CC1)c1nc2c(C(=O)O)cccc2o1 has what Fu?
0.00851 fraction (unitless)

Continuing:
I am curious: what Fu value has been reported for CCCCN(c1nc2c(NS(C)(=O)=O)cccc2o1)[C@H](C)c1ccc(-c2ccccc2-c2nnn[nH]2)cc1 ?
0.0203 fraction (unitless)

Dear colleague, I am looking for the recorded Fu of the following compound: CCCCN(c1nc2c(-c3ccccn3)cccc2o1)[C@H](C)c1ccc(-c2ccccc2-c2nnn[nH]2)cc1
0.129 fraction (unitless)

Sample Cc1ccc(-c2nc(=O)o[nH]2)c(-c2ccc([C@@H](C)N(CC3CC3)c3nc4c(C(=O)O)cccc4o3)cc2)c1 — what was its Fu?
0.023 fraction (unitless)

Look up Fu: CCCCN(c1nc2c(C(=O)O)cccc2o1)[C@H](C)c1ccc(-c2cc(F)ccc2-c2nc(=O)o[nH]2)cc1
0.00736 fraction (unitless)

###

Experiment: Plasma concentration in cynomolgus monkey at 50 mg/kg, po measured at 8 hrs of administration
Assay type: ADME, organism-based, Macaca fascicularis
QUANTITY_KIND: concentration at 8 h (µM)
Only the number, expressed in µM, is required.

GET /values?readout=concentration at 8 h&item= Cc1ccc(-c2nc(=O)o[nH]2)c(-c2ccc([C@@H](C)N(CC3CC3)c3nc4c(C(=O)O)cccc4o3)cc2)c1
30.4

###

Experiment: Plasma concentration in cynomolgus monkey at 50 mg/kg, po measured at 4 hrs of administration
Format: ADME, organism-based, Macaca fascicularis
QUANTITY_KIND: concentration at 4 h (µM)
Express the result in µM but write the number alone.

Quick one: concentration at 4 h of Cc1ccc(-c2nc(=O)o[nH]2)c(-c2ccc([C@@H](C)N(CC3CC3)c3nc4c(C(=O)O)cccc4o3)cc2)c1 ?
204

###

Test: Half-life in cynomolgus monkey at 10 mg/kg, po by LC-MS/MS analysis
Assay type: ADME, organism-based, Macaca fascicularis
Settings: in vivo
QUANTITY_KIND: half-life (h)
Number only, in h; omit the unit.

half-life lookup needed for Cc1ccc(-c2nc(=O)o[nH]2)c(-c2ccc([C@@H](C)N(CC3CC3)c3nc4c(C(=O)O)cccc4o3)cc2)c1 , thanks.
1

Read the next record carefully.
Recorded half-life of CCCCN(c1nc2c(C(=O)O)cccc2o1)[C@H](C)c1ccc(-c2cc(Cl)ccc2-c2nc(=O)o[nH]2)cc1 , please.
2

###

Each entry below carries its recorded IC50.
Biological target: Chemerin-like receptor 1 (Homo sapiens, UniProt Q99788)
Sequence (Q99788 whole entry): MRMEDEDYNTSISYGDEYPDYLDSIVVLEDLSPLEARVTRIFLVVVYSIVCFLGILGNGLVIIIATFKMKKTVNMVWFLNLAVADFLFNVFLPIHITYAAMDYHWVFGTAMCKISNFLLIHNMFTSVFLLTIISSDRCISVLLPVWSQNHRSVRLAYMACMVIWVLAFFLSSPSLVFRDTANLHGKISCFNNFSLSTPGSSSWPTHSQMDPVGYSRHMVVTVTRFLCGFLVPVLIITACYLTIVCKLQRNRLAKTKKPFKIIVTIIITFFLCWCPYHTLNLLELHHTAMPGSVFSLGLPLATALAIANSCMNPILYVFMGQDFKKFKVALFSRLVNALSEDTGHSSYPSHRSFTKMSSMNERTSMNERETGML
Assay: Inhibition of chemR23 in human CAL1 cells assessed as inhibition of chemerin-induced intracellular calcium ion concentration preincubated for 45 mins followed by human chemerin addition by FDSS6000 analysis
Your answer is read as nM, so omit the unit and give the number.

Below, each entry is followed by its recorded IC50 result.
Given the entry C[C@H](c1ccc(-c2ccccc2-c2nc(=O)o[nH]2)cc1)N(CC1CC1)c1nc2c(C(=O)O)cccc2o1 , report its measured IC50.
11

Could you tell me which IC50 is on file for CCCCN(c1nc2ccccc2o1)[C@H](C)c1ccc(-c2cc(C(F)(F)F)ccc2-c2nnn[nH]2)cc1 ?
1320

Which value of IC50 has been reported for Cc1ccc(-c2nc(=O)o[nH]2)c(-c2ccc([C@@H](C)N(CC3CC3)c3nc4c(C(=O)O)cccc4o3)cc2)c1 in the records?
3.2

What IC50 value was documented for this molecule, CCCCN(c1nc2c(C(=O)NS(C)(=O)=O)cccc2o1)[C@H](C)c1ccc(-c2ccccc2-c2nnn[nH]2)cc1 ?
14

Any idea what IC50 was measured for CCCCN(c1nc2c(-c3ccncc3)cccc2o1)[C@H](C)c1ccc(-c2ccccc2-c2nnn[nH]2)cc1 ?
300

---
Recorded IC50 for CCCCN(c1nc2c(C(=O)N(C)C)cccc2o1)[C@H](C)c1ccc(-c2ccccc2-c2nnn[nH]2)cc1 , please?
13

May I ask what IC50 has been recorded for CCCCN(c1nc2c(-c3cccn3C)cccc2o1)[C@H](C)c1ccc(-c2ccccc2-c2nnn[nH]2)cc1 ?
130

So what's the measured IC50 for this one? CCCCN(c1nc2c(C(=O)O)cccc2o1)[C@H](C)c1ccc(-c2cc(Cl)ccc2-c2nc(=O)o[nH]2)cc1
1.2

Given the entry CCCCN(c1nc2c(NS(C)(=O)=O)cccc2o1)[C@H](C)c1ccc(-c2ccccc2-c2nnn[nH]2)cc1 , report its measured IC50.
14

Need IC50 of CCCCN(c1nc2ccccc2o1)[C@H](C)c1ccc(-c2ccc(OC)cc2-c2nnn[nH]2)cc1 , thanks.
3000

Param item = CCCCN(c1nc2c(C(=O)O)cccc2o1)[C@H](C)c1ccc(-c2ccccc2-c2nnn[nH]2)cc1 ; retrieve measured IC50.
17

Give its IC50 value. Item: CCCCN(c1nc2c(CO)cccc2o1)[C@H](C)c1ccc(-c2ccccc2-c2nnn[nH]2)cc1
24

What does the record list as IC50 for CCCCN(c1nc2ccccc2o1)[C@H](C)c1ccc(-c2c(F)cccc2-c2nnn[nH]2)cc1 ?
160

Please give the measured IC50 for this molecule: C[C@H](c1ccc(-c2cc(F)ccc2-c2nc(=O)o[nH]2)cc1)N(CC1CC1)c1nc2c(C(=O)O)cccc2o1
2.3

Using the record for CCCCN(c1nc2ccccc2o1)[C@H](C)c1ccc(-c2cc(F)ccc2-c2nnn[nH]2)cc1 , report its IC50.
75

Dear colleague, I am looking for the recorded IC50 of the following molecule: CCCCN(c1nc2c(NC(C)=O)cccc2o1)[C@H](C)c1ccc(-c2ccccc2-c2nnn[nH]2)cc1
22

###

Experiment: Drug concentration in cynomolgus monkey at 10 mg/kg, po by LC-MS/MS analysis measured upto 8 hrs
Assay type: ADME, organism-based, Macaca fascicularis
Conditions: in vivo, read-out: Ct
QUANTITY_KIND: concentration at 8 h
Returns: string containing the numeric result and its unit.

Which concentration at 8 h value is on record for Cc1ccc(-c2nc(=O)o[nH]2)c(-c2ccc([C@@H](C)N(CC3CC3)c3nc4c(C(=O)O)cccc4o3)cc2)c1 ?
206 ng/mL

###

Assay: AUC (0 to infinity) in cynomolgus monkey at 10 mg/kg, po by LC-MS/MS analysis
Type: ADME, organism-based, Macaca fascicularis
Set-up: time infinity, route oral, dose 10 mg/kg
Conditions: in vivo
QUANTITY_KIND: AUC(0-inf) (ng·h/mL)
Numeric answer only, unit ng·h/mL assumed.

For CCCCN(c1nc2c(C(=O)O)cccc2o1)[C@H](C)c1ccc(-c2cc(Cl)ccc2-c2nc(=O)o[nH]2)cc1 , what is its reported AUC(0-inf)?
7090

// switching to the query molecule
If you can, please state the reported AUC(0-inf) value of Cc1ccc(-c2nc(=O)o[nH]2)c(-c2ccc([C@@H](C)N(CC3CC3)c3nc4c(C(=O)O)cccc4o3)cc2)c1 .
22200
